- experiment_notes: qHTS for identification of novel therapeutic agents for treatment of microphthalmiaassociated transcription factor (MiT) renal cell carcinoma (RCC) (AID 1963991);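 further: curves scaled with 100% = DMSO viability and 0% = empty wells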
- cond: TFE3-RCC viability, CellTiter-Glo, 48 h; measured here: UOK145 Z-AUC; stronger effect = lower value
Records with an inconclusive call do not appear.
reported_property: z-score
Returns: the value as a bare number; no unit string appended.

Examples with answers:
{"molecule": "Cc1cc(-c2nnc3n2CCCCC3)c(C)n1-c1ccccc1", "z-score": 0.656}
{"molecule": "O=C(C=CC=Cc1ccc2c(c1)OCO2)N1CCCCC1", "z-score": 0.432}
{"molecule": "N#CC(=C(O)c1ccc(Cl)cc1Cl)c1nc2cc(Cl)ccc2c(=O)[nH]1", "z-score": 0.266}
{"molecule": "N#Cc1c(NC(=O)c2cccc3ccccc23)sc2c1CCCC2", "z-score": -1.31}
{"molecule": "CC(=O)OCC(=O)[C@@]12N=C(C)O[C@H]1C[C@H]1[C@@H]3CCC4=CC(=O)C=C[C@]4(C)[C@@H]3[C@@H](O)C[C@@]12C", "z-score": 2.44}

Prompt: Would you mind telling me what z-score value was observed for C[C@@H]1CC[C@@]2(OC1)OC1CC3C4CC=C5CC(O)CCC5(C)C4CCC3(C)C1[C@@H]2C (some centres undefined) ?
Response: 0.634

Prompt: What do you have for C=CC(=O)Nc1ccc2ncnc(Nc3ccc(OCc4cccc(F)c4)c(Cl)c3)c2c1 ?
Response: -1.72

Prompt: Quick one: CCCCCCCCCCCCc1ccc(S(=O)(=O)Nc2nncs2)cc1
Response: 1.03

====

- experiment_notes: qHTS profiling of the MIPE4 collection as inhibitors of Plasmodium falciparum (DD2) proliferation (AID 743345)
- cond: P. falciparum Dd2 in erythrocytes, SYBR Green DNA, 72 h; at 28.5 µM (top of the series) unless noted
I'd appreciate it if you marked entries true when parasite growth remaining, % of DMSO control (lower = more inhibition) is lower than 90% and false when it is not.

{"compound": "C[C@H](NC(=O)[C@@H](O)c1cc(F)cc(F)c1)C(=O)N[C@@H]1C(=O)N(C)c2ccccc2-c2ccccc21", "assigned_label": "true"}
{"compound": "CC(C)C[C@H](NC(=O)[C@@H](NC(=O)c1cccc(-c2ccccc2)n1)[C@@H](C)O)B(O)O", "assigned_label": "true"}

Prompt: Answer whether the compound CCOc1cc2ncc(C#N)c(Nc3ccc(OCc4ccccn4)c(Cl)c3)c2cc1NC(=O)C=CCN(C)C has parasite growth remaining, % of DMSO control (lower = more inhibition) strictly less than 90%
Response: true

Prompt: # iterate: N#CC(=C(O)c1ccc(Cl)cc1Cl)c1nc2cc(Cl)ccc2c(=O)[nH]1
Response: false

Prompt: Another compound: O=C1c2c(O)cccc2[C@@H]([C@@H]2O[C@H](CO)[C@@H](O)[C@H](O)[C@H]2O)c2cc(CO)cc(O)c21
Response: false

====

- experiment_notes: qHTS of pediatric cancer cell lines to identify multiple opportunities for drug repurposing: Primary screen for RD cells (AID 1347104); further: nearly all actives have a fitted effect of over 55% in size
- cond: RD rhabdomyosarcoma viability, CellTiter-Glo luminescence, 48 h; series mostly up to 46 µM
Results filed as inconclusive are left out. Calls of active or inactive are those of the source. Calls follow the shape of the dose curve; as a rule, active = well fitted cell-killing curve with a large enough effect; inconclusive = small, poorly fitted or top-dose-only effect; inactive = flat fitted curve, though single readings scatter.
Respond only with the outcome that fits, drawn from True = active, False = inactive

{"smiles_str": "C[C@H](NCc1ccc2c(c1)nc(NC(=O)c1ccc(-c3cn[nH]c3)s1)n2CCc1ccccc1)C(C)(C)C", "assigned_label": "True"}
{"smiles_str": "CN(C)CCN1C(=O)c2cccc3cc(N)cc(c23)C1=O", "assigned_label": "True"}
{"smiles_str": "CC(C)N(CC[C@H](c1ccccc1)c1cc(CO)ccc1O)C(C)C", "assigned_label": "False"}

Attention now shifts to the item below.
Prompt: Tell me the assay call for O=C(C=Cc1ccc(CN(CCO)CCc2c[nH]c3ccccc23)cc1)NO please.
Response: True
